Target: PE-labeled human PD-L1-Ig binding to Jurkat cell line over-expressing human PD-1 (Jurkat-PD-1) (Homo sapiens)
Construct: expressed in transfected cells; host or cells: Jurkat
Sequence (Q15116 25-288): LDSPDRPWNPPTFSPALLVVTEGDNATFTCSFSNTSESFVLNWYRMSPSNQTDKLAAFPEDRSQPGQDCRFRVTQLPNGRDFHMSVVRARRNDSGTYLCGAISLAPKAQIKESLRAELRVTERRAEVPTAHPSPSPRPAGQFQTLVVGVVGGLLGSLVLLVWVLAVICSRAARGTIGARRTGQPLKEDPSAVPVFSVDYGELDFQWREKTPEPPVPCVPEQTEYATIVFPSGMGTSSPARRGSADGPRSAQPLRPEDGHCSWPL
Assay: Jurkat-PD-1 Cell Binding High-Content Screening Assay (CBA): Method 1
Conditions: Jurkat-hPD-1 cells, PE-labeled PD-L1-Ig 20 nM final; read-out: Jurkat HPDL1 PD1 IC50 (uM) (Method 1)
Bridge positions count the residues as written; N and C are the ends. Square brackets hold non-standard residues; d marks the D form. Peptide text beside a SMILES is read from it. Bip = N[C@@H](Cc1ccc(-c2ccccc2)cc1)C(=O)O; NMeA = CN[C@@H](C)C(=O)O
parameter: IC50 (µM)
Value expressed in µM; do not type the unit.

CC(C)C[C@@H]1NC(=O)[C@H](Cc2c[nH]c3ccccc23)NC(=O)[C@H](CC(=O)O)NC(=O)[C@H](Cc2ccc(O)cc2)NC(=O)[C@H](Cc2ccccc2)NC(=O)CSC[C@@H](C(=O)NCC(N)=O)NC(=O)[C@H](CO)NC(=O)[C@H](C(C)C)NC(=O)[C@H](CC(C)C)NC(=O)[C@H](CC(N)=O)NC(=O)[C@H](CCC(N)=O)NC(=O)[C@H](C)N(C)C(=O)[C@H](C(C)C)NC(=O)[C@H](Cc2ccc(-c3ccccc3)cc2)NC1=O [Compound 1811] ({CH2CO}-FYDWL[Bip]V[NMeA]QNLVSCG-NH2; thioether N-14)
0.28

For the next question, use this molecule.
Look up and state reported IC50 for CC(C)C[C@@H]1NC(=O)[C@H](CCCNC(=N)N)NC(=O)[C@@H](Cc2ccccc2)NC(=O)[C@H](C)N(C)C(=O)[C@H](CCCNC(=N)N)NC(=O)[C@H](Cc2ccc(-c3ccccc3)cc2)NC(=O)[C@H](C(C)C)NC(=O)[C@H](Cc2c[nH]c3ccccc23)NC(=O)[C@H](CC(=O)O)NC(=O)[C@H](Cc2ccc(O)cc2)NC(=O)[C@H](CCC(N)=O)NC(=O)CSC[C@@H](C(=O)NCC(N)=O)NC(=O)[C@H](CO)NC(=O)[C@H](C(C)C)NC1=O [Compound 1023] ({CH2CO}-QYDWV[Bip]R[NMeA][dF]RLVSCG-NH2; thioether N-14)
0.14

----------
Biological target: PE-labeled human PD-L1-Ig binding to Jurkat cell line over-expressing human PD-1 (Jurkat-PD-1) (Homo sapiens)
Construct: expressed in transfected cells; host or cells: Jurkat
Test: Jurkat-PD-1 Cell Binding High-Content Screening Assay (CBA): Method 1
Conditions: Jurkat-hPD-1 cells, PE-labeled PD-L1-Ig 20 nM final; read-out: Jurkat HPDL1 PD1 IC50 (uM) (Method 1)
Numbered stars: 1 amine (or outer) side, 2 acyl side, 3 side chain; on linkers, the order of the positions; unused ones are H or OH. Bridge positions count the residues as written; N and C are the ends. Square brackets hold non-standard residues; d marks the D form. Peptide text beside a SMILES is read from it. X39 = COc1cccc(-c2ccc(C[C@H](N[*:1])C(=O)[*:2])cc2)c1; Bip = N[C@@H](Cc1ccc(-c2ccccc2)cc1)C(=O)O; NMeA = CN[C@@H](C)C(=O)O
parameter: IC50 (µM)
State just the number; it will be interpreted in µM.

CC(C)C[C@@H]1NC(=O)[C@H](Cc2c[nH]c3ccccc23)NC(=O)[C@H](CC(=O)O)NC(=O)[C@H](Cc2ccc(O)cc2)NC(=O)[C@H](Cc2ccccc2)NC(=O)CSC[C@@H](C(=O)NCC(N)=O)NC(=O)[C@H](CO)NC(=O)[C@H](C(C)C)NC(=O)[C@H](CC(C)C)NC(=O)[C@H](CC(=O)O)NC(=O)[C@@H](CC(=O)O)NC(=O)[C@H](C)N(C)C(=O)[C@H](C(C)C)NC(=O)[C@H](Cc2ccc(-c3ccccc3)cc2)NC1=O [Compound 1829] ({CH2CO}-FYDWL[Bip]V[NMeA][dD]DLVSCG-NH2; thioether N-14)
0.85

Quickly give me recorded IC50 for COc1cccc(-c2ccc(C[C@@H]3NC(=O)[C@H](CC(C)C)NC(=O)[C@H](Cc4c[nH]c5ccccc45)NC(=O)[C@H](CC(=O)O)NC(=O)[C@H](Cc4ccc(O)cc4)NC(=O)[C@H](Cc4ccccc4)NC(=O)CSC[C@@H](C(=O)N[C@@H](C)C(N)=O)NC(=O)[C@H](CO)NC(=O)[C@H](C(C)C)NC(=O)[C@H](CC(C)C)NC(=O)[C@H](CC(N)=O)NC(=O)[C@@H](C)NC(=O)[C@H](C)N(C)C(=O)[C@H](C(C)C)NC3=O)cc2)c1 [Compound 1798] ({CH2CO}-FYDWL[X39]V[NMeA][dA]NLVSCA-NH2; thioether N-14)
0.17
